Experiment: in vitro
Settings: rat, gh3-tre-luc cells, AC50 (uM) modified / 1000, Tox21_110001=Tox21_202582; viability, 1 nM T3 present, 24 h
Value Type: CC50 at 24 h

In plain terms, Nc1c(Br)cc(Br)c2c1C(=O)c1ccccc1C2=O has a documented CC50 at 24 h of > 20 µM

###

Assay: in vitro
Conditions: rat, gh3-tre-luc cells, AC50 (uM) modified / 1000, Tox21_110001=Tox21_201090; viability, 1 nM T3 present, 24 h
Value Type: CC50 at 24 h

In plain terms, CC(=O)C(Cl)Cl has a documented CC50 at 24 h of > 90 µM

###

Molecular target: TRα ligand-binding domain (Homo sapiens, UniProt P10827)
Construct: the receptor LBDs expressed as glutathione S-transferase (GST) fusion proteins; purchased
Sequence (P10827 163-410 isoform P10827-2 limits assumed, other chains not shown): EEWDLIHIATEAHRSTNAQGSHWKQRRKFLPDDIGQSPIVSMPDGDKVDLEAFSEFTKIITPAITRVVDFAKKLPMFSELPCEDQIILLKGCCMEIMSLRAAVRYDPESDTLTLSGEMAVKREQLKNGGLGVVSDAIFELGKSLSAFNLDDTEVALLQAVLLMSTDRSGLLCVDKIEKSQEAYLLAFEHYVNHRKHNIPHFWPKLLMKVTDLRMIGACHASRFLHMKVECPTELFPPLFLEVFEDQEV
Assay: TRa-coa LanthaScreen TR-FRET coactivator (SRC-2 peptide) recruitment, agonist (TOX21_TRA_COA_Agonist_Followup_ratio, aeid 2230)
Type: biochemical
Settings: cell-free coactivator recruitment; read-out: TRa-coa-Ag AC50
Value Type: AC50

For orientation, consider the following solved cases.
compound="COc1cc(C)c(/C=C/C(C)=C/C=C/C(C)=C/C(=O)O)c(C)c1C [Acitretin, reference compound]" measured_on="TRα ligand-binding domain (Homo sapiens, UniProt P10827)" result="> 92 µM"
compound="C[C@]12CC[C@H]3C(=CCc4cc(O)ccc43)[C@@H]1CCC2=O [Equilin, reference compound]" measured_on="TRα ligand-binding domain (Homo sapiens, UniProt P10827)" result="> 92 µM"
compound="CSCC[C@H](NC(=O)[C@H](Cc1ccc(OS(=O)(=O)O)cc1)NC(=O)[C@@H](N)CC(=O)O)C(=O)NCC(=O)N[C@@H](Cc1c[nH]c2ccccc12)C(=O)N[C@@H](CCSC)C(=O)N[C@@H](CC(=O)O)C(=O)N[C@@H](Cc1ccccc1)C(N)=O [Sincalide, reference compound]" measured_on="TRα ligand-binding domain (Homo sapiens, UniProt P10827)" result="> 92 µM"

In plain terms, CC(C)(C)CC(C)(C)c1ccc(O)c(Cc2ccc(Cl)cc2Cl)c1 [Clofoctol, reference compound] has a documented AC50 of 8.92 µM

In plain terms, CC1=C(/C=C/C(C)=C\C=C\C(C)=C\C(=O)O)C(C)(C)CCC1 [9-cis Retinoic acid, reference compound] has a documented AC50 of > 92 µM

In plain terms, O=C(O)CCNC(=O)c1ccccc1 [Betamipron, reference compound] has a documented AC50 of 10.4 µM

###

Assay: in vitro
Conditions: rat, gh3-tre-luc cells, AC50 (uM) modified / 1000, Tox21_110001=Tox21_400056; viability, 1 nM T3 present, 24 h
Value Type: CC50 at 24 h

In plain terms, O=[N+]([O-])c1cc([N+](=O)[O-])c2ccccc2c1 [1,3-Dinitronaphthalene] has a documented CC50 at 24 h of > 90 µM

###

Tested on: GH3-TRE-Luc cell line
Settings: read-out: AC50 (uM) modified / 1000; Tox21_110001=Tox21_300720; viability, 1 nM T3 present, 24 h
Value Type: CC50 (µM)
Field: numeric (µM). Do not append units.

GH3-TRE-Luc cell line assay, molecule C=CCOC(Cn1ccnc1)c1ccc(Cl)cc1Cl (stereo not shown) , recorded CC50 = 79.9
